# Tested on: Escherichia coli
# TEST DESCRIPTION: ≥ marks a high value that may be exact or a test limit, other limits are often not marked, values filed in µg/mL are converted to µM
Each entry below carries its recorded MIC.
I only need the number, in µM, no unit after it.

Worked set:
[
  {
    "SMILES RECORD": "CC(C)C[C@H](NC(=O)[C@H](CO)NC(=O)[C@H](CCCN=C(N)N)NC(=O)[C@H](CCCCN)NC(=O)[C@@H](NC(=O)[C@@H](NC(=O)CNC(=O)[C@H](CCCN=C(N)N)NC(=O)[C@H](Cc1cnc[nH]1)NC(=O)[C@H](Cc1c[nH]c2ccccc12)NC(=O)[C@H](Cc1ccccc1)NC(=O)[C@H](Cc1cnc[nH]1)NC(=O)[C@H](Cc1ccc(O)cc1)NC(=O)[C@@H](N)Cc1ccc(O)cc1)C(C)C)[C@@H](C)O)C(=O)O",
    "UNIT": "µM",
    "MIC": 30
  },
  {
    "SMILES RECORD": "CC(C)C[C@H](NC(=O)[C@H](CCCN=C(N)N)NC(=O)[C@H](Cc1c[nH]c2ccccc12)NC(=O)[C@H](CCCN=C(N)N)NC(=O)[C@H](CC(C)C)NC(=O)[C@H](CCCN=C(N)N)NC(=O)[C@H](Cc1c[nH]c2ccccc12)NC(=O)[C@H](CCCN=C(N)N)NC(=O)[C@H](CC(C)C)NC(=O)[C@H](CCCN=C(N)N)NC(=O)[C@@H](N)Cc1c[nH]c2ccccc12)C(=O)N[C@@H](CCCN=C(N)N)C(N)=O",
    "UNIT": "µM",
    "MIC": 2
  }
]

# MIC of `CC(C)C[C@H](NC(=O)CN)C(=O)N[C@@H](CCC(N)=O)C(=O)N[C@@H](Cc1ccccc1)C(=O)N1CCC[C@H]1C(=O)N[C@H](C(=O)NCC(=O)N[C@@H](CCCN=C(N)N)C(=O)N[C@H](C(=O)N[C@@H](Cc1cnc[nH]1)C(=O)N[C@@H](CCCN=C(N)N)C(=O)N[C@@H](CC(C)C)C(=O)N[C@@H](CC(C)C)C(=O)N[C@@H](CCCN=C(N)N)C(=O)N[C@@H](CCCCN)C(=O)O)C(C)C)C(C)C` = 2.25

FYI, the data here is from DBAASP.
